Measured Stable at T (room) for: values are reported for all entries that follow.
ASSAY_NAME: Solubility of reaction components and additives in MS
Type: physicochemical
MEASUREMENT_CONDITIONS: solution in MS, 4.1 wt %

Take a look at these entries with their results.
O=C(Oc1ccccc1)Oc1ccccc1 [Diphenyl Carbonate]: >24 h
CC(C)(C)c1ccc(OP(Oc2ccc(C(C)(C)C)cc2C(C)(C)C)Oc2ccc(C(C)(C)C)cc2C(C)(C)C)c(C(C)(C)C)c1 [Irgafos 168]: <2 h
COC(=O)c1ccccc1OC(=O)Oc1ccccc1C(=O)OC [BMSC, bismethylsalicylcarbonate]: >24 h

Turning to the following compound.
Qu. Returns the measured Stable at T (room) for: for the input compound. Input: O[C@@H]1CO[C@H]2[C@@H]1OC[C@@H]2O [Isosorbide, 1,4:3,6-dianhydro-D-sorbitol]
Ans. >24 h
